Test system: redroot pigweed (Amaranthus retroflexus)
MEASUREMENT PROTOCOL: Test G Post-Emergence Protocol
Type: in vivo
REPORTED CONDITIONS: Amaranthus retroflexus, post-emergence, 312 h, 62.5 g ai/ha, evaluated after 13 days, read-out: Pigweed, Redroot damage rating (100=total damage to plant; 0=no damage to plant)
REPORTED ENDPOINT: pest or weed control at 62.5 g/ha (%)

# COMPOUND, EXPERIMENTAL RESULT
records = [
    ("Cc1cc(NC(=O)[C@@H]2C(=O)N(C)C[C@H]2c2ccc(C(F)(F)F)cc2)sn1 (racemic) [Compound 1560]", 0),
    ("Cc1cccnc1NC(=O)C1C(=O)N(C)CC1c1ccc(C(F)(F)F)cc1 (centres unmarked) [Compound 1437]", 0),
    ("CN1C[C@@H](c2ccc(C(F)(F)F)cc2)[C@H](C(=O)Nc2ccnc(F)c2)C1=O (racemic) [Compound 1529]", 0),
    ("CN1C[C@@H](c2ccc(C(F)(F)F)cc2)[C@H](C(=O)Nc2cccc3cn[nH]c23)C1=O (racemic) [Compound 1605]", 20),
    ("Cc1cnc(NC(=O)[C@@H]2C(=O)N(C)C[C@H]2c2ccc(C(F)(F)F)cc2)nn1 (racemic) [Compound 1508]", 0),
    ("CN1C[C@@H](c2ccc(C(F)(F)F)cc2)[C@H](C(=O)Nc2nnc[nH]2)C1=O (racemic) [Compound 1562]", 10),
    ("Cc1cc(Cl)ccc1NC(=O)[C@H]1C(=O)N(C)C[C@@H]1c1ccc(C(F)(F)F)cc1 (racemic) [Compound 1442]", 0),
    ("Cc1cnc(NC(=O)[C@@H]2C(=O)N(C)C[C@H]2c2ccc(C(F)(F)F)cc2)nc1 (racemic) [Compound 1575]", 0),
    ("Cc1c(NC(=O)[C@H]2C(=O)N(C)C[C@@H]2c2ccc(C(F)(F)F)cc2)cccc1[N+](=O)[O-] (racemic) [Compound 1423]", 0),
    ("CN1C[C@@H](c2ccc(C(F)(F)F)cc2)[C@H](C(=O)Nc2sccc2C#N)C1=O (racemic) [Compound 1520]", 0),
    ("COc1cccc(NC(=O)[C@@H]2C(=O)N(C)C[C@H]2c2ccc(C(F)(F)F)cc2)n1 (racemic) [Compound 1601]", 10),
    ("Cc1n[nH]c(NC(=O)[C@@H]2C(=O)N(C)C[C@H]2c2ccc(C(F)(F)F)cc2)c1C#N (racemic) [Compound 1582]", 0),
    ("CN1C[C@@H](c2ccc(C(F)(F)F)cc2)[C@@](O)(C(=O)Nc2cccc(F)c2F)C1=O (racemic) [Compound 1403]", 10),
    ("Cc1ccc([C@H]2CN(C)C(=O)[C@@H]2C(=O)Nc2ccc(F)nc2F)cc1 [Compound 1402]", 60),
]
